tested on: Hs578T; experiment: normalised response (% of control), CellTiter-Glo; higher = more viable cells (100 = DMSO, 0 = benzethonium chloride kill control); conditions: incubation time: 72 h
Can you tell me normalised response for the items I'm about to list?
Please respond with the number in % and leave the unit unwritten.

Record COCC1(CO)C(=O)C2CCN1CC2 (stereo not drawn) [Prima-1 Met] (1 nM) , field normalised response: 99.1

Briefly, normalised response measured for CCn1c(-c2nonc2N)nc2cnc(Oc3cccc(NC(=O)c4ccc(OCCN5CCOCC5)cc4)c3)cc21 (1 nM) : 99.5

// normalised response lookup, molecule = CNC(=O)c1ccc(N2C(=S)N(c3ccc(C#N)c(C(F)(F)F)c3)C(=O)C23CCC3)cc1F [RD162] (10 nM) , result: 95.3

Record COc1cc2/c(=N/c3ccc(Br)cc3F)nc[nH]c2cc1OCC1CCN(C)CC1 [Vandetanib] (1 nM) , field normalised response: 93.9

Entry CNC(=O)c1cc(Oc2ccc(NC(=O)Nc3ccc(Cl)c(C(F)(F)F)c3)c(F)c2)ccn1 [Regorafenib] (10 nM) , normalised response reported as 101

Note to self: normalised response recorded for Cc1[nH]c2ccccc2c1CCNCc1ccc(/C=C/C(=O)NO)cc1 [Panobinostat] (1 nM) was 98.7

normalised response measured on CO[C@H]1C[C@@H]2CC[C@@H](C)[C@@](O)(O2)C(=O)C(=O)N2CCCC[C@H]2C(=O)O[C@H]([C@H](C)C[C@@H]2CC[C@@H](OP(C)(C)=O)[C@H](OC)C2)CC(=O)[C@H](C)/C=C(\C)[C@@H](O)[C@@H](OC)C(=O)[C@H](C)C[C@H](C)/C=C/C=C/C=C/1C [Ridaforolimus] (0.01 nM) = 96.8

Please fill in: normalised response reported for CC(C)C[C@@H](C(=O)N[C@H](C(=O)OC1CCCC1)c1ccccc1)[C@H](O)C(=O)NO [Tosedostat] (1 nM) = 94.4

// recorded normalised response for N#Cc1ccc(COC[C@H]2O[C@@H](n3c(NCc4ccc(Cl)c(Cl)c4)nc4c(N)ncnc43)[C@H](O)[C@@H]2O)cc1 (1 nM) : 101

normalised response reading for COC(=O)c1ccc2c(c1)NC(=O)/C2=C(\Nc1ccc(N(C)C(=O)CN2CCN(C)CC2)cc1)c1ccccc1 [Nintedanib] (10 nM) : 104

normalised response measured on O=P1(N(CCCl)CCCl)NCCCO1 (stereo not drawn) [Cyclophosphamide] (4000 nM) = 111

response.value for O=C(/C=C/c1cccc(S(=O)(=O)Nc2ccccc2)c1)NO [Belinostat] (10 nM) (field: normalised response) = 94.3

Lab note: measured normalised response of O=C(Nc1ccncc1)C(=O)c1cn(Cc2ccc(Cl)cc2)c2ccccc12 [Indibulin] (1 nM) was 100

So, COc1cc2/c(=N/c3ccc(Br)cc3F)nc[nH]c2cc1OCC1CCN(C)CC1 [Vandetanib] (100 nM) ? Its normalised response was 94.1

Record COc1cc2ncnc(Nc3ccc(F)c(Cl)c3)c2cc1OCCCN1CCOCC1 [Gefitinib] (1000 nM) , field normalised response: 106

normalised response for CN(C)CCOc1ccc(/C(=C(/CCCl)c2ccccc2)c2ccccc2)cc1 [Toremifene] (10 nM) is 103

Entry C=C1C[C@@H]2[C@H](CC[C@]3(C)C(=O)CC[C@@H]23)[C@@]2(C)C=CC(=O)C=C12 [Exemestane] (10 nM) , normalised response reported as 99.7

normalised response reading for CNC(=O)c1cccc(-c2ccc3c(N4CCOC[C@@H]4C)nc(N4CCOC[C@@H]4C)nc3n2)c1 [AZD2014] (10 nM) : 104

Measured normalised response of O=C(Nc1cccnc1)N1CCC(Cc2cccc(Oc3ccc(C(F)(F)F)cn3)c2)CC1 [PF-3845] (1 nM) : 106

normalised response for CNC(=O)c1ccc(N2C(=S)N(c3ccc(C#N)c(C(F)(F)F)c3)C(=O)C23CCC3)cc1F [RD162] (1 nM) is 102

Entry Cc1cc(Nc2cc(CN3CCOCC3)c3nc(C)c(Cc4ccc(Cl)cc4F)n3n2)n[nH]1 [Gandotinib] (1 nM) , normalised response reported as 100

Looking up COc1cc(OC2CCN(C)CC2)ccc1Nc1ncc2c(n1)n(C1CCCC1)c(=O)n2C [AZ 3146] (10 nM) , I found its normalised response recorded as 93

Memo: COCC[n+]1c2c(n(Cc3cnccn3)c1C)C(=O)c1ccccc1C2=O [YM155] (1000 nM) , reported normalised response: 25.6

The reported normalised response of the molecule N#Cc1ccc(COC[C@H]2O[C@@H](n3c(NCc4ccc(Cl)c(Cl)c4)nc4c(N)ncnc43)[C@H](O)[C@@H]2O)cc1 (1000 nM) was 86.9

The molecule S=P(N1CC1)(N1CC1)N1CC1 [Thio-TEPA] (50 nM) showed normalised response equal to 99.1

Per the records, this molecule ( COCC1(CO)C(=O)C2CCN1CC2 (stereo not drawn) [Prima-1 Met] (10 nM) ) has normalised response equal to 103

normalised response measured on CCOC(=O)CCNc1cc(N2CCc3ccccc3CC2)nc(-c2ccccn2)n1 [GSK-J4] (10 nM) = 97

Looking up O=P1(N(CCCl)CCCl)NCCCO1 (stereo not drawn) [Cyclophosphamide] (40 nM) , I see its normalised response listed as 106
